Sequence of the target: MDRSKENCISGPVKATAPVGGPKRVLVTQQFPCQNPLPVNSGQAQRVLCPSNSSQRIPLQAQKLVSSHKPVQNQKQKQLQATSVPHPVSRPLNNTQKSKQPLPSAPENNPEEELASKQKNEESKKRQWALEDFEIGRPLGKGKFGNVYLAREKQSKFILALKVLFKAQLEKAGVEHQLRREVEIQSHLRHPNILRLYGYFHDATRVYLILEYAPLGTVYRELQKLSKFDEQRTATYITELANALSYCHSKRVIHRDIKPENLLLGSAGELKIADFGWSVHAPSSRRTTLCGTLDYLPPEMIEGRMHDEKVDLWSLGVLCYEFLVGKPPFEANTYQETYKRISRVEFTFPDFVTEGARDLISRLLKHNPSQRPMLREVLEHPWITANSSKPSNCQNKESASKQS
pKi: −log10 of the molar value.
Measured pKi accompanies every entry in the list below.

• Cc1ccc(-c2c(N)nn3cc(-c4ccncc4)cnc23)nc1 = 5.30 to 6.30
• Cc1cnc2c(-c3cc(NC4CCC4)ncn3)c(N)nn2c1 = 5.30 to 6.30
• NC1CCN(Cc2cccc(C3=CN4NC(N)C(c5ccccn5)=C4N=C3)c2)CC1 (stereo not drawn) = 5.30 to 6.30
• Nc1nn2cc(-c3cccc(C(=O)N4CCC(N)CC4)n3)cnc2c1-c1ccccn1 = 5.30 to 6.30
• CN(C)Cc1ccc(-c2cnc3c(-c4ccccn4)c(N)nn3c2)cc1 = > 6.30
• Cc1cnc2c(-c3cc(NC4CC4)ncn3)c(N)nn2c1 = 5.30 to 6.30
• CC(C)Nc1cc(-c2c(N)nn3cc(-c4ccncc4)cnc23)ncn1 = > 6.30
• CCN(CCC#N)C(=O)c1cccc(-c2cnc3c(-c4ccccn4)c(N)nn3c2)n1 = 5.30 to 6.30
• Nc1nn2cc(C(=O)NC3CCCNC3)cnc2c1-c1ccccn1 (stereo not drawn) = 5.30 to 6.30
• CNC(=O)c1cnc2c(-c3ccccn3)c(N)nn2c1 = 5.30 to 6.30

Now take the following molecule into account.
q: Data request, read-out pKi, for Nc1nn2cc(-c3ccncc3)cnc2c1-c1cc(NC2CCCCC2)ncn1
a: > 6.30

The origin of these recorded values is patent US7528138B2.
